- EXPERIMENTAL_DETAILS: RCMB18 cell growth, single agent and combined, cisplatin and BGB IC40 combos (AID 1671462);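 further: cells exposed to compound for four days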
- RUN_PARAMETERS: RCMB18 medulloblastoma cells, measured here: combination with cisplatin, at 0.5 µM, stronger effect = higher value
For each entry below, report its inhibition value.
Respond with the bare value in %.

Exercise: Query (molecule): Cn1cc(-c2cnn3c(N)c(Br)c([C@H]4CCCNC4)nc23)cn1 ; field requested: inhibition
Solution: -3.81

Exercise: Also need COc1cccc2c1C(=O)c1c(O)c3c(c(O)c1C2=O)CC(O)(C(C)=O)CC3OC1CC(N)C(O)C(C)O1 (stereo unspecified) , thanks.
Solution: 77.7

Exercise: Also need COc1ccccc1S(=O)(=O)Nc1ccc2c(c1)CN(C)C(=O)N2 , thanks.
Solution: -32.4

Exercise: Also need CC(Oc1cc(-c2cnn(C3CCNCC3)c2)cnc1N)c1c(Cl)ccc(F)c1Cl (stereo unspecified) , thanks.
Solution: 33

Exercise: Also need O=c1cc(-c2ccc(O)cc2)[nH]c(=S)[nH]1 , thanks.
Solution: -10.5

Exercise: Also need C#CCC(CCCCCC)C(=O)O (stereo unspecified) , thanks.
Solution: 22
